- System: MCF7
- experiment: MTT assay, MCF7 breast cancer cells
- Type: cell-based
- testConditions: Homo sapiens; MCF7, 10 µM, 72 h; read-out: % cell growth inhibition
resultType: inhibition at 10 µM (%)
One number for each entry, in %.

For the 3 compounds below, give their inhibition at 10 µM values.
1. CCOC(=O)c1c(NC(=O)CN2CCN(CC)CC2)sc2c1CCN(C(=O)OCC)C2 [6e]
2. CCOC(=O)c1c(NC(=O)CN2CCOCC2)sc2c1CCN(C(=O)OCC)C2 [6h]
3. CCOC(=O)c1c(NC(=O)CN2CCN(c3ncccn3)CC2)sc2c1CCN(C(=O)OCC)C2 [6k]

1: 11.7; 2: 20.3; 3: 12.2

====

- Test system: HSC3
- experiment: MTT assay, HSC3 head and neck cancer cells
- Format: cell-based
- testConditions: Homo sapiens, HSC-3, 72 h, HSC3, 1 µM, 72 h; read-out: % cell growth inhibition
// label = true if inhibition at 1 µM is not less than 4%, otherwise false

Quick check: does CCOC(=O)c1c(NC(=O)CN2CCNCC2)sc2c1CCN(C(=O)OCC)C2 [6c] have inhibition at 1 µM greater than or equal to 4%?
true

====

For each of the compounds below, state its IC50.
- Tested on: MCF7
- experiment: MTT assay, MCF7 breast cancer cells
- Format: cell-based
- testConditions: Homo sapiens, MCF7, 72 h
Answers are plain numbers, in µM.

1. CCOC(=O)c1c(NC(=O)CN2CCSCC2)sc2c1CCN(C(=O)OCC)C2	16.4

Reported IC50, compound CCOC(=O)c1c(NC(=O)CN2CCCCC2)sc2c1CCN(C(=O)OCC)C2 : ____
73.7

====

- System: RKO
- experiment: MTT assay, RKO colorectal cancer cells
- Assay type: cell-based
- testConditions: Homo sapiens, 10 µM, 72 h, read-out: % cell growth inhibition
- Excerpt: An MTT assay was used to evaluate the final compounds’ anticancer activity against MCF7 and T47D (breast cancer cells), HSC3 (head and neck cancer cells), and RKO (colorectal cancer cells) cell lines, using cisplatin as a reference standard. Table 1 presents the percentage growth inhibition of all compounds against the various cancer cell lines. […]
resultType: inhibition at 10 µM (%)
Answers are plain numbers, in %.

1. CCOC(=O)c1c(NC(=O)CN2CCCCC2)sc2c1CCN(C(=O)OCC)C2	53
2. CCOC(=O)c1c(NC(=O)CN2CCC(C)CC2)sc2c1CCN(C(=O)OCC)C2	39.3

For the 6 compounds below, give their inhibition at 10 µM values.
1. CCOC(=O)c1c(NC(=O)CN2CCNCC2)sc2c1CCN(C(=O)OCC)C2
2. CCOC(=O)c1c(NC(=O)CN2CCN(C)CC2)sc2c1CCN(C(=O)OCC)C2
3. CCOC(=O)c1c(NC(=O)CN2CCN(C(=O)OC(C)(C)C)CC2)sc2c1CCN(C(=O)OCC)C2
4. CCOC(=O)c1c(NC(=O)CN2CCSCC2)sc2c1CCN(C(=O)OCC)C2
5. CCOC(=O)c1c(NC(=O)CN2CCN(CC)CC2)sc2c1CCN(C(=O)OCC)C2
6. CCOC(=O)c1c(NC(=O)CN2CCN(C(=O)c3ccco3)CC2)sc2c1CCN(C(=O)OCC)C2

1. 30.9
2. 0
3. 17.2
4. 55.4
5. 7.24
6. 17.3

For the 3 compounds below, give their inhibition at 10 µM values.
1. CCOC(=O)c1c(NC(=O)CN2CCOCC2)sc2c1CCN(C(=O)OCC)C2
2. CCOC(=O)c1c(NC(=O)CN2CCN(c3ncccn3)CC2)sc2c1CCN(C(=O)OCC)C2
3. CCOC(=O)c1c(NC(=O)CN2CCN(c3ccccc3OC)CC2)sc2c1CCN(C(=O)OCC)C2

19.1
22.2
14.6
